# Tested System: wild-type Drosophila melanogaster EcR (DmEcR; GAL4-EcR DEF with VP16-RXR-USP chimera) (Drosophila melanogaster, UniProt P34021)
# Sequence (P34021 with tags, fused parts or gaps limits assumed): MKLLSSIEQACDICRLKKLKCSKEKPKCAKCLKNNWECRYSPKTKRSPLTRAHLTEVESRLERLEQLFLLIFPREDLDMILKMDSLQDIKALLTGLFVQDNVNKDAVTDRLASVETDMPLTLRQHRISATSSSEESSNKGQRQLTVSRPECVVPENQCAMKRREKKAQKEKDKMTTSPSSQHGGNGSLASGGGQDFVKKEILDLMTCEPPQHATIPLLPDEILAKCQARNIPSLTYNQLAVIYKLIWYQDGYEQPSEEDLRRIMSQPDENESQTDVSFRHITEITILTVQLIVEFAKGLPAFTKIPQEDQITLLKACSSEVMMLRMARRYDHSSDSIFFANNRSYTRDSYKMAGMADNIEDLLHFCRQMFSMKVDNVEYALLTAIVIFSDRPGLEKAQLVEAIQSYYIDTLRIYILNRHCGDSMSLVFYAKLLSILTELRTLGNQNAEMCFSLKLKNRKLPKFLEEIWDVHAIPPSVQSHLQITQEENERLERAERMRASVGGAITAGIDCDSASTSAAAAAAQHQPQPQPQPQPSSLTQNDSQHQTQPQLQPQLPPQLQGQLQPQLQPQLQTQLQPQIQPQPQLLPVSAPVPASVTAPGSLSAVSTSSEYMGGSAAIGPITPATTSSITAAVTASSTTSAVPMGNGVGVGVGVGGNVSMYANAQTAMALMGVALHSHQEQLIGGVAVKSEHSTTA
# Protocol Notes: Two-hybrid gene switch assay, luciferase reporter, wild-type DmEcR, mouse NIH3T3 cells
# Assay type: cell-based
# Run Conditions: EC50, FIG. 14A/14B, GAL4-EcR(DEF) with VP16-RXR-USP chimera
Please respond with reported EC50 for every item in the list.

Need EC50, item CC(C)(O)CCC(=O)[C@](C)(O)[C@H]1CC[C@@]2(O)C3=CC(=O)[C@@H]4C[C@@H](O)[C@@H](O)C[C@]4(C)[C@H]3CC[C@]12C [Compound 22-dehydro-20-hydroxyecdysone]
~20 µM

Try the molecule CC(=O)C1CCC2(O)C3=CC(=O)C4CC(O)C(O)CC4(C)C3CCC12C (stereo not drawn)
> 33 µM

Try the molecule CC(C)(O)CC[C@@H](O)[C@](C)(O)[C@H]1CC[C@@]2(O)C3=CC(=O)[C@@H]4C[C@@H](O)[C@@H](O)C[C@]4(C)C3=CC[C@]12C [Compound 25-hydroxydacryhainansterone]
> 33 µM

Consider the following items and state reported EC50 for each.
1. CC(C)(O)CCCC(C)(O)C1CCC2(O)C3=CC(=O)C4CC(O)C(O)CC4(C)C3CCC12C (stereo not drawn)
2. C[C@H](CO)CC[C@@H](O)[C@](C)(O)[C@H]1CC[C@@]2(O)C3=CC(=O)[C@@H]4C[C@@H](O)[C@@H](O)C[C@]4(C)[C@H]3CC[C@]12C [(25S)-inokosterone]
3. CC(C)(O)CC[C@@H](O)[C@](C)(O)[C@H]1CC[C@@]2(O)C3=CC(=O)[C@@H]4C[C@H]5OC(C)(C)O[C@H]5C[C@]4(C)[C@H]3CC[C@]12C [20-hydroxyecdysone-2,3-acetonide]

1. ~20 µM
2. ~20 µM
3. > 33 µM

----------
Please respond with reported EC50 for every item in the list.
# Tested System: Amblyomma americanum EcR (AmaEcR-DEF) (Amblyomma americanum)
# Sequence (O44338 291-570): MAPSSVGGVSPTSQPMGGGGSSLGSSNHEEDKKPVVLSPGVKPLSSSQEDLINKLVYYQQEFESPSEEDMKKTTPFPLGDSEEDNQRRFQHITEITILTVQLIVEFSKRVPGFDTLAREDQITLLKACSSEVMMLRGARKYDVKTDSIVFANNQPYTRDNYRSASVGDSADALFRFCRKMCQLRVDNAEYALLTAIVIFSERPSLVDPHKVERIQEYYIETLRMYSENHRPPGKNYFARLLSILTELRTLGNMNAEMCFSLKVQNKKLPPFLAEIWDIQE
# Sequence (P28702 299-449 partner): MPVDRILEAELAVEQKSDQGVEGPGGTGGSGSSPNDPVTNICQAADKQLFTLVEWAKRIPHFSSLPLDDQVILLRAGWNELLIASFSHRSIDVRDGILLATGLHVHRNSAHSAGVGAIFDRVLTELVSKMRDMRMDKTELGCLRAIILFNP
# Protocol Notes: Two-hybrid gene switch assay, AmaEcR-DEF in NIH3T3 cells

// below: answered compounds
Need EC50, item CO[C@@H]1C[C@H]2C(=O)C=C3[C@H](CC[C@]4(C)[C@@H]([C@@](C)(O)[C@@H](CCC(C)(C)O)OC)CC[C@@]34O)[C@@]2(C)C[C@@H]1O [20E-3,22-dimethyl ether]
~2 µM

Try the compound CO[C@H]1C[C@@]2(C)[C@@H](C[C@H]1O)C(=O)C=C1[C@@H]2CC[C@]2(C)[C@@H]([C@@](C)(O)[C@@H](CCC(C)(C)O)OC)CC[C@@]12O [20E-2,22-dimethyl ether]
~8 µM

Try the compound CO[C@H]1C[C@@]2(C)[C@@H](C[C@H]1O)C(=O)C=C1[C@@H]2CC[C@]2(C)[C@@H]([C@@](C)(O)[C@H](O)CCC(C)(C)O)CC[C@@]12O [20E-2-methyl ether]
~10 µM

Try the compound CO[C@@H]1C[C@H]2C(=O)C=C3[C@H](CC[C@]4(C)[C@@H]([C@@](C)(O)[C@H](O)CCC(C)(C)O)CC[C@@]34O)[C@@]2(C)C[C@@H]1O [20E-3-methyl ether]
~3.3 µM

Alright, here's another compound for you.
Need EC50, item CO[C@H](CCC(C)(C)O)[C@](C)(O)C1CC[C@@]2(O)C3=CC(=O)C4C[C@@H](O)[C@@H](O)CC4(C)C3CCC12C (some centres unmarked) [20E-22-methyl ether]
~1 µM
